As an illustration, consider measured pIC50 for compounds on Endoplasmin (Homo sapiens).
Sequence (P14625 whole entry): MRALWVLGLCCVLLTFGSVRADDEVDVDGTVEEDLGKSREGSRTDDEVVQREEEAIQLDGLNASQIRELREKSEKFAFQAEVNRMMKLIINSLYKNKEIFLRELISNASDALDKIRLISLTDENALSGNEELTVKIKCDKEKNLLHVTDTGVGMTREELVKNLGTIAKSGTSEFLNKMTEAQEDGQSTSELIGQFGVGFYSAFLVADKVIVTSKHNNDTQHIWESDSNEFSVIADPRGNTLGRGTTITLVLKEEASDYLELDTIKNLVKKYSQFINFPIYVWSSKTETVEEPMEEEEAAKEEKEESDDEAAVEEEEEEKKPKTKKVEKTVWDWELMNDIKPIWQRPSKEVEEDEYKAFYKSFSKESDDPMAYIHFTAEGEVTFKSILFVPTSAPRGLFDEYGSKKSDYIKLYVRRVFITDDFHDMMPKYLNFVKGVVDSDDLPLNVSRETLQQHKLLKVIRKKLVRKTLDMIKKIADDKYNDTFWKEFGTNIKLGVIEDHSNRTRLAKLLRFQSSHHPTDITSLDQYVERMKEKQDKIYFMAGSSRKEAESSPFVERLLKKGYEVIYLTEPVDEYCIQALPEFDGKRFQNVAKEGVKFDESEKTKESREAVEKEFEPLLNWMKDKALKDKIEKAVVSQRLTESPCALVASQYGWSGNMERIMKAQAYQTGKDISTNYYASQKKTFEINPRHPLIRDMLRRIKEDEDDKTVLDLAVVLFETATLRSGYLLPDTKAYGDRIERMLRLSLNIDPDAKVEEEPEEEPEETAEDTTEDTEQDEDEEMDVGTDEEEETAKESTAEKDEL
Friendly reminder that pIC50 comes from taking -log10 of the concentration in mol/L.

These solved cases illustrate the format of a correct answer.
smiles_input=CCOC(=O)Cn1nnc(-c2cc(C(C)C)c(O)cc2O)c1-c1ccc(S(C)(=O)=O)cc1 study_target="Endoplasmin (Homo sapiens)" observation_type=pIC50 value_observed=7.00
smiles_input=CC(C)c1cc(-c2n[nH]c(=O)n2-c2ccc3c(ccn3C)c2)c(O)cc1O study_target="Endoplasmin (Homo sapiens)" observation_type=pIC50 value_observed=7.42
smiles_input=CC(C)c1cc(-c2nnn(Cc3ccccc3)c2-c2ccc(S(C)(=O)=O)cc2)c(O)cc1O study_target="Endoplasmin (Homo sapiens)" observation_type=pIC50 value_observed=7.11
smiles_input=COC(=O)Cn1nnc(-c2cc(C(C)C)c(O)cc2O)c1-c1ccc2c(c1)OCCO2 study_target="Endoplasmin (Homo sapiens)" observation_type=pIC50 value_observed=7.11

Attention now shifts to the item below.
Request: Checklist item: pIC50 tested on Endoplasmin (Homo sapiens), entry `CCOC(=O)Cn1nnc(-c2cc(C(C)C)c(O)cc2O)c1-c1ccc2c(c1)OCCO2` , value?
Result: 6.72

###

study target: Heat shock protein 75 kDa, mitochondrial (Homo sapiens)
Sequence (Q12931 whole entry): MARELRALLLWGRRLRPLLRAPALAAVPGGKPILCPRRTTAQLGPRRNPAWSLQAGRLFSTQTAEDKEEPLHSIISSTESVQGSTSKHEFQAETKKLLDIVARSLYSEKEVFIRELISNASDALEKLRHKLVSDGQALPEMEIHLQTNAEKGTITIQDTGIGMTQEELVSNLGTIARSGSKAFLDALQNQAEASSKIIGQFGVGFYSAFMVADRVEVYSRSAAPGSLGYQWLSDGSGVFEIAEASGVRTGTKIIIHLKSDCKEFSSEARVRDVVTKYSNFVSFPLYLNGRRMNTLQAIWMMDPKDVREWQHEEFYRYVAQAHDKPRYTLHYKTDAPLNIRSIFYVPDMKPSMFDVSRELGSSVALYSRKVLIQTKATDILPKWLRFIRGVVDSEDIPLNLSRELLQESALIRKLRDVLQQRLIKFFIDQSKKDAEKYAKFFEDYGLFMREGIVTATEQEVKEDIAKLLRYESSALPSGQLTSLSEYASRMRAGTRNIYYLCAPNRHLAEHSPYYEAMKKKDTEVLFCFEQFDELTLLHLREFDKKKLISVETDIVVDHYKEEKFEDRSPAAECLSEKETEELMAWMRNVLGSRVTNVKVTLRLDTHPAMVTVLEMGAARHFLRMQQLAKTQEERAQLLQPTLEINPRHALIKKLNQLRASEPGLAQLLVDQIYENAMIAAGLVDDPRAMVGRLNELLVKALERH
Reported pIC50 by item:
Friendly reminder that pIC50 comes from taking -log10 of the concentration in mol/L.

smiles_input=CC(C)c1cc(-c2nnn(Cc3ccccc3)c2-c2ccc(S(C)(=O)=O)cc2)c(O)cc1O study_target="Heat shock protein 75 kDa, mitochondrial (Homo sapiens)" value_observed=5.07
smiles_input=COC(=O)Cn1nnc(-c2cc(C(C)C)c(O)cc2O)c1-c1ccc(S(C)(=O)=O)cc1 study_target="Heat shock protein 75 kDa, mitochondrial (Homo sapiens)" value_observed=4.80
smiles_input=CCOC(=O)Cn1nnc(-c2cc(C(C)C)c(O)cc2O)c1-c1ccc2c(c1)OCCO2 study_target="Heat shock protein 75 kDa, mitochondrial (Homo sapiens)" value_observed=4.59
smiles_input=CCOC(=O)Cn1nnc(-c2cc(C(C)C)c(O)cc2O)c1-c1cccc(NS(C)(=O)=O)c1 study_target="Heat shock protein 75 kDa, mitochondrial (Homo sapiens)" value_observed=4.48
smiles_input=COC(=O)Cn1nnc(-c2cc(C(C)C)c(O)cc2O)c1-c1cccc(S(C)(=O)=O)c1 study_target="Heat shock protein 75 kDa, mitochondrial (Homo sapiens)" value_observed=4.76
smiles_input=COC(=O)Cn1nnc(-c2cc(C(C)C)c(O)cc2O)c1-c1cccc(NS(C)(=O)=O)c1 study_target="Heat shock protein 75 kDa, mitochondrial (Homo sapiens)" value_observed=4.61

Request: Consider the molecule `COC(=O)Cn1nnc(-c2cc(C(C)C)c(O)cc2O)c1-c1ccc(OCCN(C)C)cc1` and give its measured pIC50.
Result: 4.85

Request: Consider the molecule `COC(=O)Cn1nnc(-c2cc(C(C)C)c(O)cc2O)c1-c1ccc2c(c1)OCCO2` and give its measured pIC50.
Result: 4.93

Request: Consider the molecule `CCOC(=O)Cn1nnc(-c2cc(C(C)C)c(O)cc2O)c1-c1ccc(S(C)(=O)=O)cc1` and give its measured pIC50.
Result: 4.80
